These measurements were taken from ChEMBL document CHEMBL4715872.

Test system: HUVEC
assay-procedure: Inhibition of full length human sGC expressed in HUVEC cells assessed as increase in oxidation of heme at 20 uM after 2 hrs by spectroscopic analysis
Assay type: cell-based
The source made the active and inactive calls. No cut-off for these calls is given here.
Return exactly one item of active, inactive

Query: Could you check what this test reported for O=C1C(O)=C(O)C(=O)c2c(O)ccc(O)c21 ?
Result: inactive

Query: Could you check what this test reported for COc1cc(C/C=C/c2ccccc2)c(OC)cc1O [VIOLASTYRENE] ?
Result: active

Query: Could you check what this test reported for CC(=O)OC1=C(O)C(=O)c2c(OC(C)=O)ccc(OC(C)=O)c2C1=O ?
Result: active

Query: Could you check what this test reported for COc1cc(C)c2c(c1C=O)Oc1c(c(C)c(O)c3c1C(O)OC3=O)OC2=O (stereo not given) [STICTIC ACID] ?
Result: inactive

Query: Could you check what this test reported for O=C1C(O)=C(O)C(=O)c2c(O)c(Cl)cc(O)c21 ?
Result: inactive

---

system: Dopamine beta-hydroxylase (Homo sapiens, UniProt P09172)
Sequence (P09172 whole entry): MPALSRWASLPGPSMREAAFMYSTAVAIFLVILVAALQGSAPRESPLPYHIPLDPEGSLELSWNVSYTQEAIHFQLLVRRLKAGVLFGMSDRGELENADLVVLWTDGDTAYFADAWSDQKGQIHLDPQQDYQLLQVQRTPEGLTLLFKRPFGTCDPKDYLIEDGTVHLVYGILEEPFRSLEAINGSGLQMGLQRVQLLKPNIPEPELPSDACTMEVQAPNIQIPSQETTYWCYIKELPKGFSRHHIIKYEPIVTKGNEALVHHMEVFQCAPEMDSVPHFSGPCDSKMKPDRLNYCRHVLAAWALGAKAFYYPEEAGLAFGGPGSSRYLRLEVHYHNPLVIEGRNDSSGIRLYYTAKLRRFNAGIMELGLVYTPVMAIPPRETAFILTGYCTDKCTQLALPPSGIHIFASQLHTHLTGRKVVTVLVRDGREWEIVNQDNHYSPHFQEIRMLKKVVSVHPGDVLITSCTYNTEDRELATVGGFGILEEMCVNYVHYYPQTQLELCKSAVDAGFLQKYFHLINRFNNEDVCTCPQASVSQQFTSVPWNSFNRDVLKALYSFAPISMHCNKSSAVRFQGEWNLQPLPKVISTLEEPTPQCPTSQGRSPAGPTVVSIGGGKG
assay-metric: pIC50
Note on units: pIC50 is unitless, being -log10 of a concentration expressed in mol/L.

Query: Could you share what pIC50 was measured for Cc1cc(O)c2c(=O)c3c(O)cc(O)c4c5c(O)cc(O)c6c(=O)c7c(O)cc(C)c8c1c2c(c34)c(c78)c65 [HYPERICIN] , tested on Dopamine beta-hydroxylase (Homo sapiens, UniProt P09172)?
Result: 4.68

---

assay-procedure: Inhibition of human sGC expressed in HUVEC cells assessed as reduction in GMP level incubated for 48 hrs by ELISA
Type: cell-based
assay-metric: pIC50
Note on units: pIC50 is unitless, being -log10 of a concentration expressed in mol/L.

Query: What pIC50 value was documented for this molecule, O=C1C(O)=C(O)C(=O)c2c(O)ccc(O)c21 ?
Result: 4.92

Query: What pIC50 value was documented for this molecule, O=C1C(O)=C(O)C(=O)c2c(O)c(Cl)cc(O)c21 ?
Result: 4.92
